system: CD2F1 mice, L1210 leukemia ip, survival T/C; assay: NCI In Vivo Anticancer Drug Screen. Data for tumor model L1210 Leukemia (intraperitoneal) in CD2F1 (CDF1) mice; settings: endpoint: median survival time; dose: 100.0 mg/kg/injection; schedule: Q01DX009 (ip); vehicle: saline with Tween-80
Inconclusive results and toxic doses are left out. Rule for the calls: active = survival T/C of 150% or more; inactive = T/C below 125% in these data.
Labels: 1 (yes) = active, 0 (no) = inactive

>  <compound>
CN(C)N=Nc1ccc(C(N)=O)cc1

>  <cat>
1 (yes)

$$$$
>  <compound>
CC1C(c2ccccc2)OC(N2CCOCC2)C(C)(C)CN1C (stereo unspecified)

>  <cat>
0 (no)

$$$$
>  <compound>
NC(=S)c1ncn(C2OC(CO)C(O)C2O)c1N (stereo unspecified)

>  <cat>
1 (yes)

$$$$
>  <compound>
Nc1nc2c(C(=O)N3CCCC3)nnn2c2ccccc12

>  <cat>
0 (no)

$$$$
>  <compound>
COc1ccc(C(C)c2cc3c(cc2OC)OCO3)cc1 (stereo unspecified)

>  <cat>
0 (no)

$$$$
>  <compound>
CCCCn1cnc2c(=S)nc[nH]c21

>  <cat>
1 (yes)

$$$$
